Kindly supply the reported Dmax values for the records listed here.
# target desc: HiBit-BRG1 fusion protein (Homo sapiens, UniProt P51532)
# Construct: expressed in transfected cells
# Sequence (P51532 whole entry, the tested form may be a part): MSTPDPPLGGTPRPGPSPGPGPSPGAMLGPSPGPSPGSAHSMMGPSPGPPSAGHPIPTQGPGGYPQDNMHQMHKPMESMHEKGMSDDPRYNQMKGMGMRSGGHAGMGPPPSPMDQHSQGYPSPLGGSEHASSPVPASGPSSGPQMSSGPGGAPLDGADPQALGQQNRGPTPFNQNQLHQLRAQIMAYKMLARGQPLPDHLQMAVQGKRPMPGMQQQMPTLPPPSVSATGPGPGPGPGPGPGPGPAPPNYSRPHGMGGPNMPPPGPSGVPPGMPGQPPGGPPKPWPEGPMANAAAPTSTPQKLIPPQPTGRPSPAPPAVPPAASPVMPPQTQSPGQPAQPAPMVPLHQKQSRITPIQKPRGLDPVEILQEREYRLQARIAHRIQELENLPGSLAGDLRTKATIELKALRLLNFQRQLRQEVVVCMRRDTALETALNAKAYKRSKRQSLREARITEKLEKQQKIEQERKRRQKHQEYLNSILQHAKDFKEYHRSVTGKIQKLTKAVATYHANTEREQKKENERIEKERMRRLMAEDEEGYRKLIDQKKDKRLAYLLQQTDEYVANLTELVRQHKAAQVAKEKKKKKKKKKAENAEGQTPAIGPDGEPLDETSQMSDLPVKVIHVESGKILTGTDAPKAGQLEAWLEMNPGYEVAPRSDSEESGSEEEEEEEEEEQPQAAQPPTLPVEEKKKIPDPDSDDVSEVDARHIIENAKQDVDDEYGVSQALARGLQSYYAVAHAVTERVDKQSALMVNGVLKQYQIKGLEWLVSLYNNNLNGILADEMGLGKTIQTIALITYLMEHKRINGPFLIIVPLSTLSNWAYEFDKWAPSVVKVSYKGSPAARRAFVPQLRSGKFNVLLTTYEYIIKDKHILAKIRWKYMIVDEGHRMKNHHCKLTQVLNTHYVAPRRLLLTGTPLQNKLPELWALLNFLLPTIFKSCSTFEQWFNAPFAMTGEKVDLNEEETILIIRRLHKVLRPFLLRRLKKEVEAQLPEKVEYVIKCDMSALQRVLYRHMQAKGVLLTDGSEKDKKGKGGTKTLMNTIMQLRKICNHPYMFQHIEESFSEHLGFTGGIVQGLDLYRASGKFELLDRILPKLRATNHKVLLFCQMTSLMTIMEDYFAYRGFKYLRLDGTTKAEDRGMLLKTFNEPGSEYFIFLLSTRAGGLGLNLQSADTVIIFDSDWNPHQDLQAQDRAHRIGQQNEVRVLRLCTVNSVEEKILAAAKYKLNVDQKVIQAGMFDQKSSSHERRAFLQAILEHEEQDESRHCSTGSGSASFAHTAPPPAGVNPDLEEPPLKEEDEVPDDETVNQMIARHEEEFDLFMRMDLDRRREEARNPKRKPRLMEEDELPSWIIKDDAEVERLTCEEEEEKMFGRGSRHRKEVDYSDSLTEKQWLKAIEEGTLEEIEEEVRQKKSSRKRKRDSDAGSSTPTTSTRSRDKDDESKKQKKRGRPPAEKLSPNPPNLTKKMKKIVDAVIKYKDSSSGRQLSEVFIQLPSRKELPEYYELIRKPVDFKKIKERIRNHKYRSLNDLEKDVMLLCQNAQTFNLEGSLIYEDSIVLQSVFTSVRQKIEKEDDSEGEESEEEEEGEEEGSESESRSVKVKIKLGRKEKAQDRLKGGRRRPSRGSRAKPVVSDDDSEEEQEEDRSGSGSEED
# assay remarks: HiBiT-BRG1 cell-based degradation assay (Nano-Glo HiBiT Lytic Detection, 24 h)
# condition context: HeLa cell line expressing HiBit-BRG1 and LgBit, read-out: BRG1 HiBit Degradation Maximum (%)
# Method: Procedure: A stable HeLa cell line expressing HiBiT-BRM was generated. On day 0, 5000 cells were seeded in 40 μL of media into each well of 384-well cell culture plates. […] The plates were shaken for 10 minutes at room temperature and the bioluminescence read using an EnVision plate reader (PerkinElmer). […] The degradation % was calculated using the following formula: % degradation=100%−100%×(LumSample−LumLC)/(LumHC−LumLC). […]

Exercise: Report Dmax for Cc1ncsc1-c1ccc([C@H](C)NC(=O)[C@@H]2C[C@@H](O)CN2C(=O)[C@@H](c2cc(CN3CCc4[nH]c5nnc(-c6ccccc6O)cc5c4C3)no2)C(C)C)cc1 (single isomer, unassigned) please.
Solution: < 50%

Exercise: Give the measured Dmax of Cc1ncsc1-c1ccc([C@H](C)NC(=O)[C@@H]2C[C@@H](O)CN2C(=O)[C@@H](c2cc(OCCN3CCC(O)(c4cc5cc(-c6ccccc6O)nnc5[nH]4)CC3)no2)C(C)C)cc1 (racemic) .
Solution: < 50%
